- studySystem: apelin receptor (Rattus norvegicus, UniProt Q9JHG3)
- Construct: experiments using native rat and human receptor; from tissue; host or cells: pooled hearts of Sprague Dawley rats
- Sequence (Q9JHG3 whole entry): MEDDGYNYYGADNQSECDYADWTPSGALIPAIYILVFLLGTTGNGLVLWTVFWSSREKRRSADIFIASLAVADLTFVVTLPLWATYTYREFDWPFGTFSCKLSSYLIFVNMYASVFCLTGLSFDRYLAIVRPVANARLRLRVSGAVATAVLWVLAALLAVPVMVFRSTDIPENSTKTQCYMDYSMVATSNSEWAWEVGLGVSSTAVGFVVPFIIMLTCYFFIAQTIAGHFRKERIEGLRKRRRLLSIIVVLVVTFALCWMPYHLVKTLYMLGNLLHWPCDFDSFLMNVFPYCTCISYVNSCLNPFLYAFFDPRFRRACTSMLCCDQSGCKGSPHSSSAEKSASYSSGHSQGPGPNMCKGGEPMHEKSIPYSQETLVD
- runDescription: Radioligand competition binding, rat heart homogenate
- assayContext: [125I]apelin-13 0.1 nM, 90 min, competitor 50 pM-100 μM, mean ± SEM, n = 3 replicates per concentration
Ends that are not written are not given here.
measurementKind: pKi
Scale explanation: pKi corresponds to minus log10 of a concentration expressed in moles per litre.

## Input I'm curious: which pKi was measured for LVQPRGSRNGPGPWQGGRRKFRRQRPRLSHKGPMPF [Apelin-36] tested on apelin receptor (Rattus norvegicus, UniProt Q9JHG3)?
## Output 10.23

====

- studySystem: apelin receptor (Homo sapiens)
- Sequence (P35414 1-380): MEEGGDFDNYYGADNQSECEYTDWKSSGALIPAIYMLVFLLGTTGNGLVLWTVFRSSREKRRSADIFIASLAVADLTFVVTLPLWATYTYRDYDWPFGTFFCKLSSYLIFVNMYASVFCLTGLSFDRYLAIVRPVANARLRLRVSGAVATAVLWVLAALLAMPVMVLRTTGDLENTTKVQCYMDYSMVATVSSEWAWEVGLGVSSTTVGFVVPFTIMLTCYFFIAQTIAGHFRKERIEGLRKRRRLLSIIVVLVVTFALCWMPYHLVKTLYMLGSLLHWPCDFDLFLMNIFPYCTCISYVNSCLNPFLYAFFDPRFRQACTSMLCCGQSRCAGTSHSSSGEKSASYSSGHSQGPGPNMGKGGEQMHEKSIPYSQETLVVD
- runDescription: Radioligand competition binding, human left ventricle homogenate
- Parameters: experiments using native rat and human receptor; from tissue; host or cells: human left ventricle from explanted hearts of dilated cardiomyopathy patients
- assayContext: human heart homogenate 1.5 mg/ml, [125I]apelin-13 0.1 nM, 90 min, competitor 50 pM-100 μM, mean ± SEM, n = 3 replicates per concentration
Ends that are not written are not given here.
measurementKind: Ki (nM)
Just the number please, in nM, no unit attached.

sequence	numericResult
LVQPRGSRNGPGPWQGGRRKFRRQRPRASHKGPMPF [Apelin-36-[L28A]]	3.02

Read the next record carefully.
## Input So what does the record say about Ki for LVQPRGSRNGPGPWQGGRRKFRRQRPRLSHKGPMPF [Apelin-36] ?
## Output 0.0525

====

Catalogue of substances with associated pEC50
- studySystem: apelin receptor (Homo sapiens, UniProt P35414)
- runDescription: Inhibition of forskolin-induced cAMP accumulation assay (DiscoverX)
- Assay type: cell-based
- Design: host or cells: CHO-K1
- assayContext: CHO-K1 cells expressing human apelin receptor; 15 μM forskolin; 30 min, 37 °C; n = 3-4 independent experiments; read-out: cAMP Assay EC50
Ends that are not written are not given here.
Scale explanation: pEC50 corresponds to minus log10 of a concentration expressed in moles per litre.

substance	studySystem	numericResult
LVQPRGSRNGPGPWQGGRRKFRRQRPRASHKGPMPF [Apelin-36-[L28A]]	apelin receptor (Homo sapiens, UniProt P35414)	7.88

Read the next record carefully.
## Input So what does the record say about pEC50 for Apelin-36-[L28C(30kDa-PEG)]: apelin-36 with leucine-28 to cysteine substitution, cysteine-28 PEGylated (30kDa) (LVQPRGSRNGPGPWQGGRRKFRRQRPRCSHKGPMPF) ?
## Output 7.02
